Hello, the source for this data is the supplement of paper PMC9170038, in case you need it.

- System: MS2 coat protein
- TEST_SUMMARY: apparent KD of MS2 coat protein; higher = weaker reporter binding
- PARTICULARS: Eterna round: R107; input ligand: theophylline 20 uM
Lab note: compare apparent KD of MS2 coat protein against 100 nM. Equal or greater, write satisfied. Smaller, write not satisfied.

MONOMER_SEQUENCE	TARGET_SYSTEM	DISCRETE_LABEL
GUGGAGACCUCGGCCGCCACUCUCCAUGAGGAUCUCCCAUGUAACAUGAGGAUCACCCAUGUGCUGAGGACCGGGAGGUCCUGAA [Same State Tryptophan B GF 19]	MS2 coat protein	not satisfied
AUCGCACCUGGUGAUACCAGCAAUUGCUCGUGACAUGAGGAUCACCCAUGUGGCCAGUGAUGCCCUUGGCAGCAUGGUCGGUGCA [Same State - Theophylline B (Freestyle 25)]	MS2 coat protein	satisfied
ACGACGCAUACAGAUACCAGUAGCCGAGAAACAUGAGGAUCACCCAUGUCGAGCGACAACUGCCCUUGGCAGCUGUAUGCGUCAG [SSTheo B #12]	MS2 coat protein	not satisfied
GCGGUGGGUCAAAAGUAAUAGAAUUCUGAAGGAGCGUGAUGAAACACAGGUAGGUCGCAGGAACAUGAGGAUCACCCAUGUACGG [Same State Arginine A GF21]	MS2 coat protein	not satisfied
CCCAAGCCAGCUGAUACCAGUGACGUGGUCAGAAUGUGCGACAUGAGGAUCACCCAUGUACACCCUUGGCAGCAGUAGAACGGUU [theeternabot_exclusion_MS2_Theo_B_47]	MS2 coat protein	not satisfied

---

- Tested on: MS2 coat protein
- TEST_SUMMARY: apparent KD of MS2 coat protein; designed switch direction (-1 OFF switch, 1 ON switch): 1; higher = weaker reporter binding
- PARTICULARS: input ligand: microRNA oligo, concentration not stated
# Lookup of reported apparent KD of MS2 coat protein keyed by entry

MONOMER_SEQUENCE	apparent KD of MS2 coat protein, µM
GGCCAGAGUCAAGGAUAUGCUACCGUUUCGGUAGCAGAAGGUGAUCACAUGAGGAUCACCCAUGUAUACUGCGAGAGUAGGGCC [JL SSNG1 3.66] (Eterna round: R96, puzzle: Same State NG 1)	0.0236
UUAGAAUUGCAAGGAUAUCUAAUGUAGAUAGUAAGAGAAGGUGCUUGAUAGUUACAUGAGGAUCACCCAUGUAUUUGGGUUUAU [JR_SSNG1_Sub057] (Eterna round: R96, puzzle: Same State NG 1)	0.345
UACUGAGUCGUAGGAUAUGUAGGAUAUGGCGAGAGCUAAGCUUGGAAGUCACUUCAGCCAGAAGGACAGAAGGACGACUCUCUC [pwkr ssNG2 2FMN + F9.13] (Eterna round: R96, puzzle: Same State NG 2)	0.273

---

# Lookup of reported apparent KD of K4 kissing-loop reporter keyed by entry
- System: K4 kissing-loop RNA reporter
- TEST_SUMMARY: apparent KD of K4 kissing-loop reporter; higher = weaker reporter binding
- PARTICULARS: Eterna round: R107; input ligand: FMN 200 uM
MEASUREMENT_KIND: apparent KD of K4 kissing-loop reporter (nM)

MONOMER_SEQUENCE	MEASUREMENT_KIND	UNIT_OF_MEASUREMENT	MEASURED
AGAUCUGUAACAGAUACCAGAGGACGAUGAUCGAACAGUGAUGUUAUCUGUUAGUCGUCGCUCCCUUGGCAGCUGUUACAGAUCA [Omei KL Theo B SS B v4]	apparent KD of K4 kissing-loop reporter	nM	106
GGUAGCAUGGCGGCCGCCACUGAGCAAGUGAUGUUUGCCUCCCUACCCUAGUGUCGAGAGUAUAUCAGGACCGGGCCAUGCUACC	apparent KD of K4 kissing-loop reporter	nM	188
GGAUAGGACAGAGGAUAUCCAGUGAUGUUGGAGAAUUCUCCUUCAUCAUGUCACAAAAGUGGCAUGGGAGAAGGCUGUCCUAUCG [Mod of Eli's FmnBX 29 v3]	apparent KD of K4 kissing-loop reporter	nM	146
UGUCAUUGGUCUGAUACCAGCUGAUCGGAAACGAUCUUGCUGGAGUGAUGUUCCAAGUAAAGCCCUUGGCAGCAGACCGAUGACU [TheoBS 9 #SwitchBubble #StaticStem]	apparent KD of K4 kissing-loop reporter	nM	183
GCAAAACGCAGUGAUGUUGCGAUAUCGGAAGGAGCGCGUGAAAACGCAGGUAGGUCGCCGAUUCAGUGAGUAUCUCGCUGUUUGC [Arginine A K4 18]	apparent KD of K4 kissing-loop reporter	nM	258
AUCAGCCUCAGAAGGAGCGUGAGUUUUAAGAGGCUGGAGUGAUGUUCCAGACAUAACGACUCACAGGUAGGUCGCUGAGACUAGU [Arg B SS t1]	apparent KD of K4 kissing-loop reporter	nM	132
UAUUGAGUGAUGUUCGAUAACCAAUCAGAUACCAGUUUUGUAGAAAACCCUUGGCAGCUGCUCAGCUCUAUAAUGCUUCGCCCUU [theeternabot_sameState_KL_Theo_A_18]	apparent KD of K4 kissing-loop reporter	nM	199
CAUAGGAAACUAUGUAUCUCUCUUACUGAAGGAGCGCGUGAAAACGCAGGUAGGUCGCAGAAUUUAAUAGAGAGUGAUGUUCUCU [Ex Arginine A K4 7]	apparent KD of K4 kissing-loop reporter	nM	239
GGCAUGGUGACGCGGCUGCCAUGCACUUGGGAGGAUAUGUUUCGUGACAGAAGGCCCAGUGAUGUUGGGUCUGUUCAAAAGGACU [Lerere]	apparent KD of K4 kissing-loop reporter	nM	434
GGCAGUGAUGUUGCCAGUGGCAGAUUGGAAGGAGCGUGGUGAGACACAGGUAGGUCGCUAAUUGAAAUUGCUGUCACUAAAAUGC [whbob_Ex_Arginine_A_2t130]	apparent KD of K4 kissing-loop reporter	nM	297
GGUAGCUAGGUAGGAUAUAGCUAGUGGAGUGAUGUUCCACGAUACACGAGUGAUGUUCGUACCCUGCUAGAAGGGCCUAGCUACC	apparent KD of K4 kissing-loop reporter	nM	114
GUGAGGAGUGGUGUUGAUUAGGGAGCGGAAGGAGCGCCGAGGAAGGCAGGUAGGUCGCCGGAUUAUAGUGAUGUUAUGAAGAGGG [ExArg.K]	apparent KD of K4 kissing-loop reporter	nM	482

---

- Test system: K4 kissing-loop RNA reporter;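 further: bound reporter read as fluorescence of individual clusters on recovered sequencing chips by microscopy, with normalized cluster intensities fitted with a binding model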
- TEST_SUMMARY: apparent KD of K4 kissing-loop reporter; higher = weaker reporter binding
- PARTICULARS: Eterna round: R107; input ligand: none
Lab note: compare apparent KD of K4 kissing-loop reporter against 100 nM. Equal or greater, write True. Smaller, write False.

MONOMER_SEQUENCE	DISCRETE_LABEL
GGCAUGGUGACGCGGCUGCCAUGCACUUGGGAGGAUAUGUUUCGUGACAGAAGGCCCAGUGAUGUUGGGUCUGUUCAAAAGGACU [Lerere]	True
GCCUAGUGAUGUUGGGUAAUUUAAACCGGGCGAGGACCGGUACGGCCGCCACUCGGAAACACAACAAAAUUUAAUUUAAUUUAAA [Exclusion - Trytophan A]	True
GGGAGUAGUGCGGCCGCCACUGAGAAAGAAGAAGAUUGUAGUGAUGUUAUGGAGGAAAGGAAGAACAGGACCGGGCAUUAGAUUU [SSTRyptB.I]	True
AAGCAGUCACGCGAAGCCAUCGAAGAUGGUCGAGGACCGGUACGGCCGCCACUCGGAGUGAUGUUCCGAAGACUGCAAAAUAAAA	True
AGUUCCGACGGAAGGAGCGGACAGUAUUGACGGAAAGGUGCAAGUGAUGUUUGCGCUUGUGUCCAGGUAGGUCGCCGUCGGAACA [Arg B SS t13]	False
GUGAAGGAGCUGCAGUGAUGUUGCAGAGACUAGGAUAUCAGGAAACUGAGAAGGAGUCAACUCCUUCACCUAGACACUGCAGAAA [[F]''-[K1]-[K2]-[F1]-[F2]-[F2]'-[F1]'-[K]'_Design1]	True

---

- Tested on: MS2 coat protein
- TEST_SUMMARY: apparent KD of MS2 coat protein, switch ON state; designed switch direction (-1 OFF switch, 1 ON switch): -1; higher = weaker reporter binding
- PARTICULARS: FMN input: 0 or 200 uM; Eterna round: R93 (includes R88 designs)
// bucketize apparent KD of MS2 coat protein: bottom end (below 20 nM), midrange (20 nM to below 40 nM), top end (40 nM or more)

>>> df
                            monomer_sequence     target_system  discrete_label
 0  AAAAAGCGAGGAUAUACGAAGCUAAGACAAAUAAGCAAGGGACAUGAGGAUCACCCAUGUAGAAGGCGCAAAAA [Exclusion 2-01... 60% 2]  MS2 coat protein        midrange
 1  AGAAAGUCAGGAUAUGCAGAAAAAAAAACGAAAAAAAAACUGCAGAAGGGACAUGAGGAUCACCCAUGUUAAAG [Mat - Exclusion 4 - Mayanna - D129]  MS2 coat protein         top end
 2  AAAGGACAAGGAUAUACAUGAGGAUCACCCAUGUGUAAAACAUAAUAAAAUAACUUAUGUAGAAGGUGUCCAAA [Mat - Exclusion 3 - Eli mod - D100]  MS2 coat protein        midrange
 3  GAAAAACAUGAGGAUCACCCAUGUAAGGAUAUGCUAAAAAACACGGAAAACGUGAAUAGCAGAAGGUACAAAAG [Mat - Exclusion 1 - Eli mod - D85]  MS2 coat protein        midrange
 4  AAAAAGUGAGGAUAUACGUUAAAAAAAAAAAAAAAAAAGCAGUAGAAGGCACAUGAGGAUCACCCAUGUAAAAA [Ex4 Malc#2]  MS2 coat protein         top end
 5  AAAAGGCGAGGAUAUACAUGAGGAUCACCCAUGUAAGUAAGCCUGGCUGAAACUAAAUGUAGAAGGCGCAAAAA [Mat - Exclusion 3 - Neo mod - D73]  MS2 coat protein      bottom end
 6  AUUAAACAUGAGGAUCACCCAUGUGAGGAUAUGCAAAAAAAAUUAUAUUAAAAAAAAAGCAGAAGGCACAUAUA [coft]  MS2 coat protein        midrange
 7  CCUAUGUCAGGAUAUCAGUAGUAAAAAAAAAAAAUUACUACUGAGAAGGGACAUGAGGAUCACCCAUGUCCCUU [EX4 309: Super Stable 9]  MS2 coat protein      bottom end
 8  CUCUUGUCAGGAUAUCUAAGAAAAGAAGAGAAAGAAAAGAAAGAGAAGGGACAUGAGGAUCACCCAUGUAAGAA [EteRNA is fun!]  MS2 coat protein         top end
 9  AAACCACAUGAGGAUCACCCAUGUCAGGAUAUGCACGAAAAUAAAUAAAAAUAAAAGUGCAGAAGGGACUAAAA [66%, Wbt, 14]  MS2 coat protein        midrange
10  AAAAAGUCAGGAUAUACAAAAGUGCGAAAGCACAAAAGGAAACAUGAGGAUCACCCAUGUAGAAGGGACAAGAA [Married to this design]  MS2 coat protein         top end
11  AACAUGUCAGGAUAUGCAACAGGAGACUGACACGCGAGUGAGCAGAAGGGACAUGAGGAUCACCCAUGUUCAAA [Meechl Ex4 3]  MS2 coat protein        midrange
